test system: basophils in whole blood from HDM allergic donors; assay: Basophil Activation Test (BAT); assay type: cell-based, human; details: 10 ng/ml; blood from HDM allergic individuals (n=14)
parameter_measured: # of individuals of 14 with positive BAT test

Please fill in: # of individuals of 14 with positive BAT test reported for A020: house dust mite protein; SEQ ID NO: 15 (Der f), 16 (Der p); Blo t SEQ ID NO: 316 printed as A0019 (protein) MSKPIFYYHPFSGPCRTVSTVAKILNVDMEMKKLDLLTKEHLNPEFLKVNPFHKVPTFVDSDGFVVDESRVIAMYLVESRKPDSFLYPKNDLKKRIQIDRWLHYDINLSTTISAPMFCVFRGHQVQDYQVEQGKETLKTLDGVMQSFEGKFLTGADQFTLADIAMYFSLNTMEVYPKYFKFDDYPNLKSWYHRVAEALKQYDTEGTIPKAIETMKQFIQQRAAEAEKH = 1
